Entries and their Kd
# experimentalSystem: interaction of ICAM-1 with the Leukointegrin CD18/CD11a (LFA-1) (Homo sapiens, UniProt P05107+P20701)
# Construct: endogenous in cells; sICAM-1: made in house, secreted from transfected CHO DUX cells
# Sequence (P20701 26-1170): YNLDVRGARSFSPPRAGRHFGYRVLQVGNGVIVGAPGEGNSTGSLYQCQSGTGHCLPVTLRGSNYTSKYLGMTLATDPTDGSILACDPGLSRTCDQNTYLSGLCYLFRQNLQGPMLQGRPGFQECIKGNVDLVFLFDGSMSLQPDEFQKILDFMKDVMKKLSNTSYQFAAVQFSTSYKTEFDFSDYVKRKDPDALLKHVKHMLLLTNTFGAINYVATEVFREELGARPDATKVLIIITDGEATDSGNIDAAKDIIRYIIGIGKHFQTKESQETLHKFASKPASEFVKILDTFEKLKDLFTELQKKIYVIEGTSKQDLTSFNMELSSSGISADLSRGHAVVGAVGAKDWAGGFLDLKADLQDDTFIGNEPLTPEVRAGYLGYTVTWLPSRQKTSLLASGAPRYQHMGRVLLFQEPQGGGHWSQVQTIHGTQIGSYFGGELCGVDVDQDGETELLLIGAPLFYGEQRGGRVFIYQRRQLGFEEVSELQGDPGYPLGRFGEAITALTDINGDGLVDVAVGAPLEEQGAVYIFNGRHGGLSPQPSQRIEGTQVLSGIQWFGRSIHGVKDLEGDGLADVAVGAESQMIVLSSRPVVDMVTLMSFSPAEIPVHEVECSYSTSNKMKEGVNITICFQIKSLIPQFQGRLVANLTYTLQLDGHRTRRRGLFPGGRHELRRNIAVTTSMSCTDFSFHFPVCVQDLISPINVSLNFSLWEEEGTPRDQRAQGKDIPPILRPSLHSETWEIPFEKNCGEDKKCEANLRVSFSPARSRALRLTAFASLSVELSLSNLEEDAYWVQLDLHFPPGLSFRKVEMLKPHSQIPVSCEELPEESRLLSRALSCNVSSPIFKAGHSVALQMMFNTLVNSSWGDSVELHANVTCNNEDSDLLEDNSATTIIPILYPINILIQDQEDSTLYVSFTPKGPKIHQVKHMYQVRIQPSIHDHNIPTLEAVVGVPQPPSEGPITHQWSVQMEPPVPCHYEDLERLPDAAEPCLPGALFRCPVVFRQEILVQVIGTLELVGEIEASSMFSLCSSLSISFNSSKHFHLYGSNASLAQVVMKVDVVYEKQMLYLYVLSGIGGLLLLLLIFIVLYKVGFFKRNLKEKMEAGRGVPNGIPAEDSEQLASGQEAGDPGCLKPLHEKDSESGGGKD
# Sequence (P05107 23-769): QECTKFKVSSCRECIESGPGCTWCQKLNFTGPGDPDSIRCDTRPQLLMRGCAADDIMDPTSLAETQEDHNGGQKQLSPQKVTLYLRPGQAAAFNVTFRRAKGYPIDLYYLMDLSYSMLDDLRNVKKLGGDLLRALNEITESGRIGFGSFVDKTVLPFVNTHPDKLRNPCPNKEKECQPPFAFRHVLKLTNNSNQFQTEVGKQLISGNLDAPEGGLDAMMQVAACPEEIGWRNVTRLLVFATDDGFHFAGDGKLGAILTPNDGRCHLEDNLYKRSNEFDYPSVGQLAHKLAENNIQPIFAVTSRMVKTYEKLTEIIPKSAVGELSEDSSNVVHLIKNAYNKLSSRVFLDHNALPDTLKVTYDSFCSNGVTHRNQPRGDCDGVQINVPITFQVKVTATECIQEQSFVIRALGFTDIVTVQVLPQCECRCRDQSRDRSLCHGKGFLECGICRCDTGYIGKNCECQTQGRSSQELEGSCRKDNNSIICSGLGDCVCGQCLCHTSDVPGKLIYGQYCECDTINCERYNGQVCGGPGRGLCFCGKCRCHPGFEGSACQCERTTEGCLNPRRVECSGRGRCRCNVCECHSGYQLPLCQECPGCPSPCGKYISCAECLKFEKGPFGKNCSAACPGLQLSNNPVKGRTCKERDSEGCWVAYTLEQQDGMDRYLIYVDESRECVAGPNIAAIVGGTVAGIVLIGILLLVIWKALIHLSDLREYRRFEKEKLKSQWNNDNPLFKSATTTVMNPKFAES
# testProtocol: Assay to determine inhibition of LFA-1 binding to ICAM-1 (immunopurified LFA-1 on plate-bound sICAM-1, ELISA readout)
# assaySetup: values marked e approximated from incomplete dose-response curve

Cc1ccccc1CC1(C)C(=O)N(c2cc(Cl)cc(Cl)c2)C(=O)N1C (centres unmarked) [Example 142] : 430 nM

// recorded Kd for CN1C(=O)N(c2cc(Cl)cc(Cl)c2)C(=O)[C@@]1(C)Cc1ccc(-c2ccccc2)cc1 [Example 182] : 50 nM

// recorded Kd for C[C@]1(Cc2ccc(C(=O)c3ccccc3)cc2)NC(=O)N(c2cc(Cl)cc(Cl)c2)C1=O [Example 184] : 370 nM
